Data origin, for the record: patent US20230017045A1

System: test plant species
assayProtocol: Post-emergent herbicidal activity test (greenhouse, foliar spray, visual growth reduction)
Format: in vivo
conditionSet: post-emergence, 336 h, AVEFA: wild oat (Avena fatua), 140 g ai/ha, 14 days after application, read-out: Visual Growth Reduction (%) 14 Days After Application, AVEFA
compounds and their reported pest or weed control at 140 g/ha

What does the data say about its pest or weed control at 140 g/ha? Entry: COC(=O)c1nc(-c2ccc(C(F)(F)F)cc2Cl)ccc1OC [F2]
0 to 29%

====

Test system: test plant species
assayProtocol: Post-emergent herbicidal activity test (greenhouse, foliar spray, visual growth reduction)
Format: in vivo
conditionSet: post-emergence, 336 h, crabgrass (Digitaria sanguinalis), 14 Days After Application, 140 g ai/ha, read-out: Visual Growth Reduction (%) DIGSA
Description: Post-emergent Test: Seeds or nutlets of the desired test plant species were planted in Sun Gro Metro-Mix® 360 planting mixture, which typically has a pH of 6.0 to 6.8 and an organic matter content of about 30 percent, in plastic pots with a surface area of 64 square centimeters. In some aspects, to ensure good germination and healthy plants, a fungicide treatment and/or other chemical or physical treatment was applied. […]
experimentalReadout: pest or weed control at 140 g/ha

Completed entries (count: 2):
>>> valuemeasured("C=Cc1c(C(F)(F)F)ccc(-c2nc(C(=O)OC)c(Cl)cc2F)c1Cl [F338]")
"60 to 74%"
>>> valuemeasured("COC(=O)c1nc(-c2ccc3ccsc3c2F)ccc1Cl [F260]")
"0 to 29%"

Given the entry COC(=O)c1nc(-c2cc3c(cc2OC)OC(F)(F)O3)c(F)cc1Cl [F333] , what pest or weed control at 140 g/ha was observed with test plant species?
60 to 74%

Now this one: COc1cc(C(F)(F)F)cc(Cl)c1-c1ccc(Cl)c(C(=O)O)n1 [F223]
60 to 74%

Now this one: COC(=O)c1nc(-c2ccc(C(F)F)cc2)ncc1Cl [F319]
0 to 29%

Now this one: COC(=O)c1nc(-c2ccc(C(F)(F)F)c(C)c2)c(F)cc1Cl [F309]
0 to 29%

Now this one: O=C(O)c1nc(-c2c(Cl)cc(C(F)(F)F)cc2[N+](=O)[O-])ccc1Cl [F224]
75 to 84%

====

compounds and their reported pest or weed control at 140 g/ha
System: test plant species
assayProtocol: Post-emergent herbicidal activity test (greenhouse, foliar spray, visual growth reduction)
Format: in vivo
conditionSet: post-emergence, 336 h, SORVU: grain sorghum (Sorghum vulgare), 140 g ai/ha, 14 days after application, read-out: Visual Growth Reduction (%) 14 Days After Application, SORVU
Source text: Post-emergent Test: Seeds or nutlets of the desired test plant species were planted in Sun Gro Metro-Mix® 360 planting mixture, which typically has a pH of 6.0 to 6.8 and an organic matter content of about 30 percent, in plastic pots with a surface area of 64 square centimeters. In some aspects, to ensure good germination and healthy plants, a fungicide treatment and/or other chemical or physical treatment was applied. […]

Completed entries (count: 6):
>>> valuemeasured("COC(=O)c1nc(-c2cc(C)c(C(F)(F)F)cc2F)ccc1Cl")
"0 to 29%"
>>> valuemeasured("Cc1cc(-c2ccc(Cl)c(C(=O)O)n2)ccc1C(F)(F)F")
"0 to 29%"
>>> valuemeasured("COC(=O)c1nc(-c2c(Cl)cc(C(F)(F)F)cc2[N+](=O)[O-])ccc1Cl")
"75 to 84%"
>>> valuemeasured("COC(=O)c1nc(-c2ccc3c(c2)OC(F)(F)O3)c(F)cc1Cl")
"75 to 84%"
>>> valuemeasured("COC(=O)c1nc(-c2cc3nonc3cc2F)c(F)cc1Cl")
"85 to 94%"
>>> valuemeasured("O=C(O)c1nc(-c2ccc(C(F)(F)F)cc2Cl)ccc1[N+](=O)[O-]")
"45 to 59%"

Field: next compound
What does the data say about its pest or weed control at 140 g/ha? Entry: COC(=O)c1nc(-c2ccc(F)cc2)c(F)cc1Cl
60 to 74%
